- ASSAYED TARGET: Oryctolagus cuniculus angiotensin II receptor
- TEST SUMMARY: Inhibition of angiotensin II induced contractions in rabbit aortic ring preparation.
READOUT NAME: pA2

| COMPOUND STRUCTURE STRING | ASSAYED TARGET | READOUT NAME | TEST VALUE |
| --- | --- | --- | --- |
| CCCCc1nc(SCc2ccc(-c3ccccc3C(=O)OC)cc2)nn1Cc1ccc(-c2ccccc2C(=O)OC)cc1 | Oryctolagus cuniculus angiotensin II receptor | pA2 | < 5 |
| CCCCCc1nc(SCc2ccc(-c3ccccc3C(=O)O)cc2)nn1Cc1ccc(-c2ccccc2C#N)cc1 | Oryctolagus cuniculus angiotensin II receptor | pA2 | < 5 |
| CCCCCc1nc(SCc2ccc(-c3ccccc3C(=O)OC)cc2)nn1Cc1ccc(-c2ccccc2C(=O)OC)cc1 | Oryctolagus cuniculus angiotensin II receptor | pA2 | < 5 |

Ref: ChEMBL document CHEMBL1127194
